All figures here come from PubChem BioAssay (Tox21).

Test Method Notes: qHTS assay to test for compound auto fluorescence at 535 nm (green) in HepG2 cell free culture (AID 720686)
Conditions Used: Cell-free medium, green autofluorescence 485/535 nm; series mostly up to 91.3 µM
The source made the active and inactive calls. Calls follow the shape of the dose curve; as a rule, active = well fitted curve in the direction sought with a large enough effect in the repeat runs; inconclusive = weak or mixed curves; inactive = flat fitted curve, though single readings scatter.
Outcome codes: YES for active, NO for inactive

>>> label("O=C(Nc1ccc([N+](=O)[O-])cc1Cl)c1cc(Cl)ccc1O")
"NO"
>>> label("CCOCCOCCO")
"NO"
>>> label("O=C(/C=C/C=C/c1ccc2c(c1)OCO2)N1CCCCC1")
"NO"
>>> label("COC(=O)c1ccccc1")
"NO"
>>> label("CCCCNS(=O)(=O)c1ccccc1")
"NO"
>>> label("COC(=O)CCC(=O)OC")
"NO"
>>> label("O=CCCCC=O")
"NO"
>>> label("O=Cc1ccccc1O")
"NO"
>>> label("CNCCCC12CCC(c3ccccc31)c1ccccc12")
"NO"
>>> label("Cc1c(OCC(F)(F)F)ccnc1CS(=O)c1nc2ccccc2[nH]1 (stereo not given)")
"NO"
>>> label("CCCC(=O)O")
"NO"
>>> label("COc1c(Cl)c(Cl)c(Cl)c(Cl)c1Cl")
"NO"
>>> label("C#C[C@]1(O)CC[C@H]2[C@@H]3CCC4=Cc5oncc5C[C@]4(C)[C@H]3CC[C@@]21C")
"NO"
>>> label("C[C@]12CC[C@H]3[C@@H](CCC4=CC(=O)CC[C@@]43C)[C@@H]1CC[C@@H]2C(=O)CO")
"NO"
>>> label("CC(=O)Oc1ccccc1C(=O)Nc1ncc([N+](=O)[O-])s1")
"NO"
>>> label("CCCc1c(OCCCCc2nn[nH]n2)ccc(C(C)=O)c1O")
"NO"
>>> label("COC(=O)Nc1nc2ccc(S(=O)c3ccccc3)cc2[nH]1 (stereo not given)")
"NO"
>>> label("COc1ccc(OC)c(C(O)CNC(=O)CN)c1 (stereo not given)")
"NO"
>>> label("O=CCc1ccccc1")
"NO"
>>> label("CC(C)OC(=O)C(C)(C)Oc1ccc(C(=O)c2ccc(Cl)cc2)cc1")
"NO"
>>> label("CC(C)=CCC/C(C)=C\\CO")
"NO"
>>> label("c1ccc2cc(Nc3ccc(Nc4ccc5ccccc5c4)cc3)ccc2c1")
"NO"
>>> label("O=C(O)c1ccccc1Nc1cccc(C(F)(F)F)c1")
"NO"
>>> label("CCCCCCCCCC(=O)OC")
"NO"
>>> label("C#C[C@]1(O)CC[C@H]2[C@@H]3CCc4cc(OC)ccc4[C@H]3CC[C@@]21C")
"NO"
>>> label("C=CC(C)(CCC=C(C)C)OC(C)=O (stereo not given)")
"NO"
>>> label("CCCCC/C=C/C=C/C=O")
"NO"
>>> label("NC=O")
"NO"
>>> label("O=C(Nc1ccc(Cl)cc1)Nc1ccc(Cl)c(Cl)c1")
"NO"
>>> label("CCCCOCCOCCOCCO")
"NO"
>>> label("O=[N+]([O-])c1ccc2c(c1)Cc1ccccc1-2")
"NO"
>>> label("COc1ccccc1/C=C/C=O")
"NO"
>>> label("CCC(C)CO (stereo not given)")
"NO"
>>> label("c1ccc2sc(SSN3CCOCC3)nc2c1")
"NO"
>>> label("CCOC(=O)C(C#N)=C(c1ccccc1)c1ccccc1")
"NO"
>>> label("Oc1ccc(O)cc1")
"NO"
>>> label("CC(C)OC=O")
"NO"
>>> label("c1cc(N(CC2CO2)CC2CO2)ccc1OCC1CO1 (stereo not given)")
"NO"
>>> label("O=C=Nc1ccc(Cc2ccc(N=C=O)cc2)cc1")
"NO"
>>> label("CCC(C)OC(=O)c1ccc(O)cc1 (stereo not given)")
"NO"
>>> label("O=C(COc1ccc(Cl)cc1)N1CCN(Cc2ccc3c(c2)OCO3)CC1")
"NO"
>>> label("NNc1ccc(C(=O)O)cc1")
"NO"
>>> label("O=C1OC2(c3cc(Br)c(O)c(Br)c3Oc3c2cc(Br)c(O)c3Br)c2c(Cl)c(Cl)c(Cl)c(Cl)c21")
"YES"
>>> label("C[C@]12CCC(=O)C=C1CC[C@@H]1[C@@H]2C(=O)C[C@@]2(C)[C@H]1CC[C@]2(O)C(=O)CO")
"NO"
>>> label("CCCCC(CC)COP(=O)(OCC(CC)CCCC)OCC(CC)CCCC (stereo not given)")
"NO"
>>> label("Clc1nc(Cl)c(Cl)c(Cl)c1Cl")
"NO"
>>> label("O=P(O)(O)O")
"NO"
>>> label("c1ccc(Nc2ccccc2)cc1")
"NO"
>>> label("c1ccc2c(c1)c1cccc3ccc4cccc2c4c31")
"NO"
>>> label("COc1ccc(C(=O)CC(=O)c2ccc(C(C)(C)C)cc2)cc1")
"NO"
>>> label("Cc1ccc(C(=O)c2cc(O)c(O)c([N+](=O)[O-])c2)cc1")
"NO"
>>> label("CC1=CC2C3CC(C=C3C)C2C1 (stereo not given)")
"NO"
>>> label("CC(C)Oc1ccc2c(=O)c(-c3ccccc3)coc2c1")
"NO"
>>> label("COC(=O)C1=C(C)NC(C)=C(C(=O)OCCN(C)Cc2ccccc2)C1c1cccc([N+](=O)[O-])c1 (stereo not given)")
"NO"
>>> label("CC(=O)CC/C=C(\\C)CCC=C(C)C")
"NO"

---

Test Method Notes: qHTS assay to identify small molecule agonists of the estrogen receptor beta (ER-beta) signaling pathway - cell viability counter screen (AID 1259380); also: nearly all actives have a fitted effect of over 30% in size
Conditions Used: ER-beta-bla HEK293T viability, CellTiter-Glo luminescence, 16 h; series mostly up to 92.4 µM
Records with an inconclusive call do not appear. Active and inactive are the calls of the source. Calls come from the whole dose curve; as a rule, active = well fitted cell-killing curve with a large enough effect in the repeat runs; inconclusive = weak or mixed curves, or effect the other way; inactive = flat fitted curve, though single readings scatter.
Outcome codes: active, inactive

>>> label("CN1C(C(=O)Nc2ccccn2)=C(O)c2ccccc2S1(=O)=O")
"inactive"
>>> label("COc1ccc(C(=O)CC(=O)c2ccc(C(C)(C)C)cc2)cc1")
"inactive"
>>> label("CN(C)C(=N)N=C(N)N")
"inactive"
>>> label("CC(CCC(=O)O)(c1ccc(O)cc1)c1ccc(O)cc1")
"inactive"
>>> label("c1cc(N(CC2CO2)CC2CO2)ccc1OCC1CO1 (stereo not given)")
"inactive"
>>> label("CCC(C)(O)CCCC(C)C (stereo not given)")
"inactive"
>>> label("c1ccc(Nc2ccccc2)cc1")
"inactive"
>>> label("Nc1ccc(Nc2ccccc2)cc1")
"active"
>>> label("c1ccncc1")
"inactive"
>>> label("Clc1nc(Cl)c(Cl)c(Cl)c1Cl")
"inactive"
>>> label("O=Cc1ccccc1O")
"inactive"
>>> label("Cc1cc2nc3c(=O)[nH]c(=O)nc-3n(C[C@H](O)[C@H](O)[C@H](O)CO)c2cc1C")
"inactive"
>>> label("CCCC(=O)O")
"inactive"
>>> label("Cc1cccc(C(=O)O)c1")
"inactive"
>>> label("OCCO")
"inactive"

---

Test Method Notes: qHTS RealTime-Glo MT Cell Viability Assay in HEK293 cells - 16 hour (AID 1224872); also: nearly all actives have a fitted effect of over 50% in size
Conditions Used: RealTime-Glo luminescence; series mostly up to 76.8 µM
Inconclusive results are not listed. The source made the active and inactive calls. Calls come from the whole dose curve; as a rule, active = well fitted cell-killing curve with a large enough effect in the repeat runs; inconclusive = weak or mixed curves, or effect the other way; inactive = flat fitted curve, though single readings scatter.
Outcome codes: active, inactive

>>> label("Cc1cccc(C(=O)O)c1")
"inactive"
>>> label("c1cc(N(CC2CO2)CC2CO2)ccc1OCC1CO1 (centres undefined)")
"inactive"
>>> label("O=C=Nc1ccc(Cc2ccc(N=C=O)cc2)cc1")
"inactive"
>>> label("Cc1c(C(N)=O)cc([N+](=O)[O-])cc1[N+](=O)[O-]")
"inactive"
>>> label("CN(C)C(=N)N=C(N)N")
"inactive"
>>> label("COC(=O)c1ccccc1")
"inactive"
>>> label("C=CC(C)(CCC=C(C)C)OC(C)=O (centres undefined)")
"inactive"
>>> label("CN(C)c1nc(N(C)C)nc(N(C)C)n1")
"inactive"
>>> label("c1ccc2sc(SSN3CCOCC3)nc2c1")
"active"
>>> label("COc1c(Cl)c(Cl)c(Cl)c(Cl)c1Cl")
"inactive"
>>> label("CCC(C)(O)CCCC(C)C (centres undefined)")
"inactive"
>>> label("CN1C(C(=O)Nc2ccccn2)=C(O)c2ccccc2S1(=O)=O")
"inactive"
>>> label("c1ccc2c(c1)Oc1ccccc1S2")
"inactive"
>>> label("CC(C)OB(OC(C)C)OC(C)C")
"inactive"

---

Test Method Notes: qHTS assay to identify small molecule agonists of the constitutive androstane receptor (CAR) signaling pathway - cell viability counter screen (AID 1224836); also: nearly all actives have a fitted effect of over 45% in size
Conditions Used: HepG2-CYP2B6-hCAR viability, CellTiter-Fluor, 23 h, PK11195 added to every well; series mostly up to 92.4 µM
Results filed as inconclusive are left out. Activity calls are given as the source filed them. Calls follow the shape of the dose curve; as a rule, active = well fitted cell-killing curve with a large enough effect in the repeat runs; inconclusive = weak or mixed curves, or effect the other way; inactive = flat fitted curve, though single readings scatter.
Outcome codes: t = active, f = inactive

>>> label("Nc1ccc(Nc2ccccc2)cc1")
"f"
>>> label("CC(C)OB(OC(C)C)OC(C)C")
"f"
>>> label("O=[N+]([O-])c1ccc2c(c1)Cc1ccccc1-2")
"f"
>>> label("CCC(C)OC(=O)c1ccc(O)cc1 (stereo not drawn)")
"f"
>>> label("C[C@]12CCC(=O)C=C1CC[C@@H]1[C@@H]2C(=O)C[C@@]2(C)[C@H]1CC[C@]2(O)C(=O)CO")
"f"
>>> label("CCCc1c(OCCCCc2nn[nH]n2)ccc(C(C)=O)c1O")
"f"
>>> label("Cc1cccc(C(=O)O)c1")
"f"
>>> label("COc1ccc(OC)c(C(O)CNC(=O)CN)c1 (stereo not drawn)")
"f"
>>> label("CC(C)OC(=O)C(C)(C)Oc1ccc(C(=O)c2ccc(Cl)cc2)cc1")
"f"
>>> label("c1ccc2sc(SSN3CCOCC3)nc2c1")
"f"
>>> label("CC1=CCC(C(C)(C)O)CC1 (stereo not drawn)")
"f"
>>> label("COC(=O)Nc1nc2ccc(S(=O)c3ccccc3)cc2[nH]1 (stereo not drawn)")
"f"
>>> label("O=C(/C=C/C=C/c1ccc2c(c1)OCO2)N1CCCCC1")
"f"
>>> label("NNc1ccc(C(=O)O)cc1")
"f"
>>> label("CN1C(C(=O)Nc2ccccn2)=C(O)c2ccccc2S1(=O)=O")
"f"
>>> label("Cc1ccc(C)c(O)c1C")
"f"
>>> label("CCOCCOCCO")
"f"
>>> label("Cc1c(OCC(F)(F)F)ccnc1CS(=O)c1nc2ccccc2[nH]1 (stereo not drawn)")
"f"
>>> label("Nc1ccc(Cl)cc1Cl")
"f"
>>> label("C[Si](C)(C)O[Si](C)(C)C")
"f"
>>> label("CCCCCCCCCC(=O)OC")
"f"
>>> label("CC(C)=CCC/C(C)=C\\CO")
"f"
>>> label("OC[C@H]1O[C@@H]2O[C@H]3[C@H](O)[C@@H](O)[C@@H](O[C@H]4[C@H](O)[C@@H](O)[C@@H](O[C@H]5[C@H](O)[C@@H](O)[C@@H](O[C@H]6[C@H](O)[C@@H](O)[C@@H](O[C@H]7[C@H](O)[C@@H](O)[C@@H](O[C@H]8[C@H](O)[C@@H](O)[C@@H](O[C@H]1[C@H](O)[C@H]2O)O[C@@H]8CO)O[C@@H]7CO)O[C@@H]6CO)O[C@@H]5CO)O[C@@H]4CO)O[C@@H]3CO")
"f"
>>> label("CCOC(=O)C(C#N)=C(c1ccccc1)c1ccccc1")
"f"
>>> label("O=c1oc(=O)c2cc3c(=O)oc(=O)c3cc12")
"f"
>>> label("CCCCOCCOCCOCCO")
"f"
>>> label("Cc1c(C(N)=O)cc([N+](=O)[O-])cc1[N+](=O)[O-]")
"f"
>>> label("c1ccc2c(c1)c1cccc3ccc4cccc2c4c31")
"f"
>>> label("Nc1ccc(S(=O)(=O)Nc2cnc3ccccc3n2)cc1")
"f"
>>> label("CC(C(=O)O)c1cccc(C(=O)c2ccccc2)c1 (stereo not drawn)")
"f"
>>> label("c1ccc2c(c1)Oc1ccccc1S2")
"f"
>>> label("O=CCc1ccccc1")
"f"
>>> label("O=CCCCC=O")
"f"
>>> label("CCCCC(CC)COC(=O)c1ccc(N(C)C)cc1 (stereo not drawn)")
"f"
>>> label("CC(C)=CCCC(C)CCO (stereo not drawn)")
"f"
>>> label("O=C(O)c1ccccc1Nc1cccc(C(F)(F)F)c1")
"f"
>>> label("CC(=O)O[C@]1(C(C)=O)CC[C@H]2[C@@H]3C=C(Cl)C4=CC(=O)[C@@H]5C[C@@H]5[C@]4(C)[C@H]3CC[C@@]21C")
"f"
>>> label("CCCCC/C=C/C=C/C=O")
"f"
>>> label("S=C(NC1CCCCC1)NC1CCCCC1")
"f"
>>> label("O=C1c2cccc(O)c2C(=O)c2c(O)cccc21")
"f"
>>> label("CCCCC(CC)COCC1CO1 (stereo not drawn)")
"f"
>>> label("CC(=O)C1(C)CC2=C(CCCC2(C)C)CC1C (stereo not drawn)")
"f"
>>> label("Oc1ccc(O)cc1")
"f"
>>> label("Nc1ncn([C@@H]2O[C@H](CO)[C@@H](O)[C@H]2O)c(=O)n1")
"t"
>>> label("CC1=CC2C3CC(C=C3C)C2C1 (stereo not drawn)")
"f"
>>> label("O=C=Nc1ccc(Cc2ccc(N=C=O)cc2)cc1")
"f"
>>> label("Cc1ccc2c(n1)Oc1ccc(C(C)C(=O)OCC(=O)N(C)C)cc1C2 (stereo not drawn)")
"f"
>>> label("Cc1ncc[nH]1")
"f"
>>> label("O=S(=O)(O)c1ccc(O)cc1")
"f"
>>> label("O=C(COc1ccc(Cl)cc1)N1CCN(Cc2ccc3c(c2)OCO3)CC1")
"f"
>>> label("Cc1cccc(N(C)C(=S)Oc2ccc3ccccc3c2)c1")
"f"
>>> label("COC(C)COC(C)COC(C)CO (stereo not drawn)")
"f"
>>> label("CC(CCC(=O)O)(c1ccc(O)cc1)c1ccc(O)cc1")
"f"
